# TARGET DESC: Integrin alpha-IIb/beta-3 (Homo sapiens, UniProt P05106+P08514)
# Sequence (P05106 27-788 limits assumed): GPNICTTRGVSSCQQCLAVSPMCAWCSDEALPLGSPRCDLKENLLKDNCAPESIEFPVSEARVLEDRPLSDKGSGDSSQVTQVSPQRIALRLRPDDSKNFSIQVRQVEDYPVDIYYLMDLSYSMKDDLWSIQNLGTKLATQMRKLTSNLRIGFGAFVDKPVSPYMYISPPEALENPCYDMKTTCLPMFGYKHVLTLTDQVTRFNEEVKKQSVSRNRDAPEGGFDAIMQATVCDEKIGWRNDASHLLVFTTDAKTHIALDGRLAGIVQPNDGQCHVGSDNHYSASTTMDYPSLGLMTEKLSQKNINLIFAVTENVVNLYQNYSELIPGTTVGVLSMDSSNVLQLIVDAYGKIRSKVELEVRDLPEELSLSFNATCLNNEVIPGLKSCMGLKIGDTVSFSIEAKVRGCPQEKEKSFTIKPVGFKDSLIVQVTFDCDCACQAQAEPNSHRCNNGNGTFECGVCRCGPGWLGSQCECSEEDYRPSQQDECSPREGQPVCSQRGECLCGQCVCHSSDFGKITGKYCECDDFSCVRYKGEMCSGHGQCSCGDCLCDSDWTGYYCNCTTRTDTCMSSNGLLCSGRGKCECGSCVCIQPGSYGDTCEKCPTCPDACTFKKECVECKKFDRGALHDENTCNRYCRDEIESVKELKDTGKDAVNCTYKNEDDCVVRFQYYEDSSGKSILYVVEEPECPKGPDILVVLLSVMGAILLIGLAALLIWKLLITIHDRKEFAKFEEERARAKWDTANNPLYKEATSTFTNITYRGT
# Sequence (P08514 32-887 limits assumed): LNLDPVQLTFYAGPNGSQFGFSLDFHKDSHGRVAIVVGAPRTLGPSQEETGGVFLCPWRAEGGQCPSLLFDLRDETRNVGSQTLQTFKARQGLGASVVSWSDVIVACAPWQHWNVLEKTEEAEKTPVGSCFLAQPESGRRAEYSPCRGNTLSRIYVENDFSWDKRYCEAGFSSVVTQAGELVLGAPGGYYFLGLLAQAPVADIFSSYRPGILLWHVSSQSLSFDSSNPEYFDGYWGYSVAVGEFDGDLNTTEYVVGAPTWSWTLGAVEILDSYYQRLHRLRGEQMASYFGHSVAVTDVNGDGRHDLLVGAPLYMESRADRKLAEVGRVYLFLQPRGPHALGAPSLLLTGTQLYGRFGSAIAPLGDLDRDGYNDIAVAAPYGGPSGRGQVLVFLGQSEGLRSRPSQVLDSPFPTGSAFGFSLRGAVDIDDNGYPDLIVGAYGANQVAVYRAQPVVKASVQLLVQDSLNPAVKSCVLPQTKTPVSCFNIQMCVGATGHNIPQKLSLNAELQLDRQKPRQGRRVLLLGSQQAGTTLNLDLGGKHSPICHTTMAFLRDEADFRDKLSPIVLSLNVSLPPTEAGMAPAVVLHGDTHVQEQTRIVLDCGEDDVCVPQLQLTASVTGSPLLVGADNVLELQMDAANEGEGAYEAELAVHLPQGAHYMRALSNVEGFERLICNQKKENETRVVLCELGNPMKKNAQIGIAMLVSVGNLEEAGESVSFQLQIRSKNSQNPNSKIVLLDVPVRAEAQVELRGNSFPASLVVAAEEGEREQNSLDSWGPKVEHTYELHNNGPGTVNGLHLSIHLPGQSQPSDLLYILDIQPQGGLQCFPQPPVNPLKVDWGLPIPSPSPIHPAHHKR
# Sequence (P08514 891-1039 limits assumed): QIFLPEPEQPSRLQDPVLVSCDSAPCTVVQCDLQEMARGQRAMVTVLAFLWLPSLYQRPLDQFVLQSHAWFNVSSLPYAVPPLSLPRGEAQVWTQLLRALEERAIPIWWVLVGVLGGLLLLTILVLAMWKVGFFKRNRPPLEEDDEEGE
# PROTOCOL DETAILS: Competition with [1251]L-692,884 for binding to purified alpha IIb/beta3 integrin, activated by coating onto yttrium silicate scintillation proximity assay fluomicrospheres.
# Format: protein-complex assay
pKd: −log10 of the molar value.
EXPERIMENTAL ENDPOINT: pKd

Example results:
>>> print(df.to_string())
                                   compound  experimental_endpoint  number
0  O=C(NC[C@H](NS(=O)(=O)c1ccccc1)C(=O)O)c1cc2cc(OCCC3CCNCC3)ccc2[nH]1                    pKd   10.25
1  C#C[C@H](CC(=O)O)NC(=O)c1ccc2c(c1)C(=O)N(CCc1ccnc(N)c1)C2                    pKd    8.66
2  Cc1ccc(S(=O)(=O)N[C@@H](CNC(=O)c2cc3n(n2)CCCN(CCC2CCNCC2)C3=O)C(=O)O)cc1                    pKd   10.10

[I] O=C(O)C[C@H](NC(=O)C[C@H]1CCCN(CCC2CCNCC2)C1=O)c1cccnc1
[II] C#C[C@H](CC(=O)O)NC(=O)CN1CCC[C@@H](CCC2CCNCC2)C1=O
// compare measured pKd, left I , right II , return larger Write the label of whichever entry you select.
I
